These data points were gathered from patent US20260199369A1.

I'd be grateful if you could share measured activation at 50 µM for these entries.
System: isolated rat soleus muscles
Test: Measurement of force in an in vitro model: recovery of contractile force of isolated rat soleus nerve-muscle preparation after tubocurarine
Details: 40 min, 50 μM of test compound, tubocurarine 115 nM, after 40 mins of compound exposure, read-out: Point increase (%): percentage increase of initial force that was restored
Method: The current disclosure relates to compounds that inhibit CIC-1 ion channels and increase muscle excitability and thereby improve muscle function in clinical conditions where muscle activation is failing. […] Experimentally, soleus muscles from 4-5 wk old rats were isolated with the motor nerve remaining attached. […] Stimulation of the motor nerve led to activation of the muscle fibres and ensuing force production that was recorded. […]
Note: unit % is implicit; provide only the numeric part.

Ask | Would you kindly share the measured activation at 50 µM for "COc1c(Cl)cc2c(c1C(=O)O)OC1(CCC1)CN2C" ?
Reply | 35

Ask | Would you kindly share the measured activation at 50 µM for "COCCN1CCOc2c1cc(Cl)c(F)c2C(=O)O" ?
Reply | 17

Ask | Would you kindly share the measured activation at 50 µM for "O=C(O)c1c(F)c(Cl)cc2c1NCCO2" ?
Reply | 23

Ask | Would you kindly share the measured activation at 50 µM for COCC1CN(C)c2cc(Cl)c(OC)c(C(=O)O)c2O1 (stereo not shown) ?
Reply | 21

Ask | Would you kindly share the measured activation at 50 µM for "COc1c(Cl)cc2c(c1C(=O)O)OC(C)(C)CN2C" ?
Reply | 51

Ask | Would you kindly share the measured activation at 50 µM for "CCOc1c(Cl)cc2c(c1C(=O)O)OCCCN2C" ?
Reply | 49

Ask | Would you kindly share the measured activation at 50 µM for "COc1c(Cl)cc2c(c1C(=O)O)OCCN2CCc1ccccc1" ?
Reply | 25

* * *

biological target: CIC-1 ion channel (Rattus norvegicus); experiment: Electrophysiological measurement of compound inhibition of CIC-1 in rat muscle (Gm, three micro-electrodes technique); conditions: Gm in fibres of whole rat soleus muscle, four increasing compound concentrations; read-out: Potency Range (EC50, inhibition of CIC-1 ion channel)
Sequence (P35524 whole entry): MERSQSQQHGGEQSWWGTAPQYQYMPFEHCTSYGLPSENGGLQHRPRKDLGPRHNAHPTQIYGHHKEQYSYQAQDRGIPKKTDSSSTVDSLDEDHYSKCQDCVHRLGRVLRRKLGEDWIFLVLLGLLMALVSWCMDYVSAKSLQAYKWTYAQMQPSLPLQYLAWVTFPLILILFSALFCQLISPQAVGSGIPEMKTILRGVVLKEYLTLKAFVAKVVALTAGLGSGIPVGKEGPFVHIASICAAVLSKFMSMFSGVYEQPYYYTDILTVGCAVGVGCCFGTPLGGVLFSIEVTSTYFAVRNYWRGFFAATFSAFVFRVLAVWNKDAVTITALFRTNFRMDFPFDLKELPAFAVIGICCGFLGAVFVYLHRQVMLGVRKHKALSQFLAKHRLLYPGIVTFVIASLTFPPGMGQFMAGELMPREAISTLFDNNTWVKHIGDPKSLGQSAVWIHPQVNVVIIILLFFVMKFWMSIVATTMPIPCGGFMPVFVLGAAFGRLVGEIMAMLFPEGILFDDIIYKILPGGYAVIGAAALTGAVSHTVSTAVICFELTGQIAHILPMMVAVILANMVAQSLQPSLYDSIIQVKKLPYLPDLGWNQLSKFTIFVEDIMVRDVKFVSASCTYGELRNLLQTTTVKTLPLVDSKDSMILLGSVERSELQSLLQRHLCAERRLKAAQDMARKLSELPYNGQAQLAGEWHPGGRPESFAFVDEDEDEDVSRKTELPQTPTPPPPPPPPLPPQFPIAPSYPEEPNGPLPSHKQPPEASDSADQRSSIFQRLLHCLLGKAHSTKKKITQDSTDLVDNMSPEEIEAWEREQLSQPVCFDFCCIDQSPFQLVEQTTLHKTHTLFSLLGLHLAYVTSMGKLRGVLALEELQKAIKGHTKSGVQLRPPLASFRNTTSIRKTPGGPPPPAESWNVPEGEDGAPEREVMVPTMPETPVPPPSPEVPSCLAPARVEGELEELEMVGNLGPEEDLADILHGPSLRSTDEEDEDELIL
pEC50: −log10 of the molar value.
READOUT TYPE: pEC50

Ask | So what pEC50 did "CCN1CCOc2c1cc(Cl)c(OC)c2C(=O)O" get with CIC-1 ion channel (Rattus norvegicus)?
Reply | 6.00 to 6.70

Ask | So what pEC50 did "Cc1ccc(CN2CCOc3cc(Cl)c(F)c(C(=O)O)c32)cc1" get with CIC-1 ion channel (Rattus norvegicus)?
Reply | 6.00 to 6.70

Ask | So what pEC50 did "O=C(O)c1c(F)cc(Cl)c2c1OCCN2" get with CIC-1 ion channel (Rattus norvegicus)?
Reply | 4.82 to 5.30

Ask | So what pEC50 did "CN1CCN(C)c2c1cc(Cl)c(F)c2C(=O)O" get with CIC-1 ion channel (Rattus norvegicus)?
Reply | 5.30 to 6.00

Ask | So what pEC50 did "CN1CCSc2c1cc(Cl)c(F)c2C(=O)O" get with CIC-1 ion channel (Rattus norvegicus)?
Reply | 5.30 to 6.00
